# tested_target: T1, p2S (p2 peptide biotinylated through its free cysteine) (human, also: biotinylated (maleimide PEO2-biotin) on one of the two Cys, which one not given here)
# T1 construct: The peptide has two cysteines; also called b-p2S
# T1 peptide: RPRYACCPGWKRT
# assay_details: SPR (BIAcore-2000), IgG injected over immobilized p2S peptide
Where no end group is shown, it is not given here.

{"binder": "4F11.v15 IgG (antibody, name in Kabat numbering, V domains shown, IgG; Kabat numbering) VH: EVQLVESGGGLVQPGGSLRLSCAASGHTFTTYGMSWVRQAPGKGLEWVGWINTHSGVPTYADDFKGRFTISLDNSKNTAYLQMNSLRAEDTAVYYCARLGSSAVDYWGQGTLVTVSS VL: DIQMTQSPSSLSASVGDRVTITCKASQSVDYDGDSYMSWYQQKPGKAPKLLIYGASNLESGVPSRFSGSGSGTDFTLTISSLQPEDFATYYCQQNNEDPYTFGQGTKVEIKR", "unit_name": "M⁻¹ s⁻¹", "kon": 90500}
